These entries and their values trace back to the supplement of paper PMC10567573.

B1: KLHL12 (parent)
chain: SMTTPRCYVGATVLRGRLYAIAGY

- Variants of: B1
- Assay Info: protein stability index of a GFP-peptide fusion (GPS, HEK-293T) (PSI 1-6); higher = more stable;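 note: lentivirally expressed fusions sorted by FACS into six bins by GFP to DsRed ratio, PSI derived from sequencing read proportions per bin multiplied by bin number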
- Experimental Context: c terminus: a fixed tail appended
Assign class by protein stability index: not lower than 2 means Satisfied; lower than 2 means Not satisfied.

Previously resolved entries follow.
> print(dat)
   mutations            cat
1       L14K  Not satisfied
2       A20T  Not satisfied
3        V9E      Satisfied

Quick check, protein stability index >= 2? `T4R`
Satisfied

Quick check, protein stability index >= 2? `A11H`
Not satisfied

Quick check, protein stability index >= 2? `T4N`
Satisfied

Quick check, protein stability index >= 2? `Y24W`
Satisfied

Quick check, protein stability index >= 2? `R6G`
Not satisfied

Quick check, protein stability index >= 2? `R6S`
Satisfied

Quick check, protein stability index >= 2? `V13H`
Satisfied

Quick check, protein stability index >= 2? `Y19R`
Not satisfied

Quick check, protein stability index >= 2? `I21A`
Satisfied

Quick check, protein stability index >= 2? `G23D`
Not satisfied

Quick check, protein stability index >= 2? `V13N`
Not satisfied

Quick check, protein stability index >= 2? `Y19E`
Satisfied

Quick check, protein stability index >= 2? `L18A`
Not satisfied

Quick check, protein stability index >= 2? `I21E`
Not satisfied

Quick check, protein stability index >= 2? `C7F`
Satisfied

Quick check, protein stability index >= 2? `G10Y`
Satisfied

Quick check, protein stability index >= 2? `T12N`
Satisfied

Quick check, protein stability index >= 2? `M2A`
Satisfied

Quick check, protein stability index >= 2? `A11D`
Not satisfied

Quick check, protein stability index >= 2? `T3L`
Satisfied
